tested on: T-cell; test: Cytotoxicity against Balb/c mouse T cells assessed as reduction in cell proliferation at 10 uM after 48 hrs by MTT assay; type: cell-based
MEASURED_QUANTITY: Activity

> print(dat)
                                   compound  measured.quantity  result
1  Cc1c(N)c(O)c(C)c2c1CC[C@H]1[C@H](C)C(=O)O[C@@H]21           Activity   Toxic
2  Cc1c(O)c([N+](=O)[O-])c(C)c2c1[C@@H]1OC(=O)[C@@H](C)[C@@H]1CC2           Activity   Toxic
3  Cc1cc(O)c(C)c2c1CC[C@@H]([C@@H](C)C(=O)O)C2           Activity   Toxic
4     COc1cc(C)c2ccc([C@@H](C)C(=O)O)cc2c1C           Activity   Toxic
5  CCOC(=O)[C@H](C)c1ccc2c(C)cc(O)c(C=O)c2c1           Activity   Toxic
6  CCOC(=O)[C@H](C)C1=Cc2c(C)c(O)cc(C)c2CC1           Activity   Toxic
7  Cc1cc(O)c(C)c2c1CCC1C2OC(O)C1C (stereo not given)           Activity   Toxic
8  Cc1cc(O)c(C)c2c1CC[C@@H]([C@@H](C)C(=O)Nc1nccc(C)c1[N+](=O)[O-])C2           Activity   Toxic
9  CC(=O)OCC(C)C1CCc2c(C)cc(OC(C)=O)c(C)c2C1O (stereo not given)           Activity   Toxic

###

system: T-cell; test: Cytotoxicity against Balb/c mouse T cells assessed as reduction in cell proliferation at 1 uM after 48 hrs by MTT assay; assay type: cell-based
MEASURED_QUANTITY: Activity

> print(dat)
                                   compound  study.system  result
1  CC(=O)OCC(C)C1CCc2c(C)cc(OC(C)=O)c(C)c2C1O (stereo unspecified)        T-cell   Toxic
2  CCOC(=O)[C@H](C)C1=Cc2c(C)c(O)cc(C)c2CC1        T-cell   Toxic
3     COc1cc(C)c2ccc([C@@H](C)C(=O)O)cc2c1C        T-cell   Toxic
4  CC(=O)Oc1cc(C)c2c(c1C)C1OC(OC(C)=O)C(C)C1CC2 (stereo unspecified)        T-cell   Toxic
5  Cc1c(O)c([N+](=O)[O-])c(C)c2c1[C@@H]1OC(=O)[C@@H](C)[C@@H]1CC2        T-cell   Toxic
6  Cc1cc(O)c(C)c2c1CCC1C2OC(O)C1C (stereo unspecified)        T-cell   Toxic

###

test system: T-cell; test: Immunostimulant activity in Balb/c mouse T cells assessed as ConA-induced cell proliferation at 100 uM after 48 hrs by MTT assay relative to control; type: ADME, cell-based
Binning scheme for Activity: low (below 9%), mid (9% to below 20%), high (20% or more)

> print(dat)
                                    molecule  discrete.label
 1  Cc1cc(O)c(C)c2c1CCC1C2OC(O)C1C (stereo not drawn)             mid
 2   CCOC(=O)[C@H](C)c1ccc2c(C)cc(O)c(C)c2c1             low
 3     COc1cc(C)c2ccc([C@@H](C)C(=O)O)cc2c1C             mid
 4  COC(=O)[C@H](C)C1=Cc2c(C)c(OC)cc(C)c2CC1            high
 5  CC(=O)OCC(C)C1CCc2c(C)cc(OC(C)=O)c(C)c2C1O (stereo not drawn)             mid
 6  Cc1c(O)c([N+](=O)[O-])c(C)c2c1[C@@H]1OC(=O)[C@@H](C)[C@@H]1CC2            high
 7  Cc1c(N)c(O)c(C)c2c1CC[C@H]1[C@H](C)C(=O)O[C@@H]21             low
 8  CCOC(=O)[C@H](C)C1=Cc2c(C)c(O)cc(C)c2CC1            high
 9  Cc1ccc(NC(=O)[C@H](C)[C@@H]2CCc3c(C)cc(O)c(C)c3C2)cc1O             mid
10  CCOC(=O)[C@H](C)c1ccc2c(C)cc(O)c(C=O)c2c1            high
11  Cc1cc(O)c(C)c2c1CCC(C(C)CO)C2O (stereo not drawn)             low
12  Cc1cc(O)c(C)c2c1CC[C@@H]([C@@H](C)C(=O)O)C2             low

###

test system: B-cell; assay: Immunosuppressive activity in Balb/c mouse B cells assessed as LPS-induced cell proliferation at 100 uM after 48 hrs by MTT assay relative to control; format: functional
Reported Activity values for the following compounds.
MEASURED_QUANTITY: Activity (%)

> print(dat)
                                    compound  study.system  measured.quantity  units.of.measure  numeric.value
 1  CC1=C2[C@H]3OC(=O)[C@@H](C)[C@@H]3CC[C@@]2(C)C=CC1=O [SANTONIN]        B-cell           Activity                 %         -33.62
 2   CCOC(=O)[C@H](C)c1ccc2c(C)cc(O)c(C)c2c1        B-cell           Activity                 %          -6.41
 3  Cc1cc(O)c(C)c2c1CC[C@@H]([C@@H](C)C(=O)N1CCOCC1)C2        B-cell           Activity                 %          -2.98
 4  COc1cc(-n2nncc2COc2cc(C)c3c(c2C)[C@@H]2OC(=O)[C@@H](C)[C@@H]2CC3)cc(OC)c1OC        B-cell           Activity                 %         -14.73
 5  CCOC(=O)[C@H](C)c1ccc2c(C)cc(O)c(C=O)c2c1        B-cell           Activity                 %          -2.65
 6  Cc1cc(O)c(C)c2c1CCC(C(C)CO)C2O (stereo not drawn)        B-cell           Activity                 %         -11.96
 7  COc1ccc2cc(-n3nncc3COc3cc(C)c4c(c3C)[C@@H]3OC(=O)[C@@H](C)[C@@H]3CC4)ccc2c1        B-cell           Activity                 %         -94.01
 8  Cc1cc(OCc2cnnn2-c2ccc(C=O)cc2)c(C)c2c1CC[C@H]1[C@H](C)C(=O)O[C@@H]21        B-cell           Activity                 %            -35
 9  CC1=C(Cl)C=C[C@]2(C)CC[C@@H]3C(=C12)OC(=O)[C@H]3C        B-cell           Activity                 %          -4.42
10  CC(=O)Nc1ccc(-n2nncc2COc2cc(C)c3c(c2C)[C@@H]2OC(=O)[C@@H](C)[C@@H]2CC3)cc1        B-cell           Activity                 %          -8.42
11  Cc1cc(O)c(C)c2c1CCC1C2OC(O)C1C (stereo not drawn)        B-cell           Activity                 %         -12.38
12  Cc1cc(OCc2cnnn2-c2ccc3c(c2)OCO3)c(C)c2c1CC[C@H]1[C@H](C)C(=O)O[C@@H]21        B-cell           Activity                 %         -32.63
13  CC(=O)OC1=C(C)C2=C3OC(=O)C(C)=C3CC[C@@]2(C)CC1        B-cell           Activity                 %          -45.6
14  Cc1cc(O)c(C)c2c1CC[C@@H]([C@@H](C)C(=O)Nc1ccc(CC#N)cc1)C2        B-cell           Activity                 %          -46.7
15  COc1cccc(NC(=O)[C@H](C)[C@@H]2CCc3c(C)cc(O)c(C)c3C2)c1        B-cell           Activity                 %         -13.93
16  CCOC(=O)[C@H](C)c1ccc2c(C)cc(OC)c(C)c2c1        B-cell           Activity                 %         -25.82
17  Cc1cc(OCc2cnnn2-c2cccc(I)c2)c(C)c2c1CC[C@H]1[C@H](C)C(=O)O[C@@H]21        B-cell           Activity                 %         -15.79
18  Cc1c(N)c(O)c(C)c2c1CC[C@H]1[C@H](C)C(=O)O[C@@H]21        B-cell           Activity                 %         -16.66

Data origin, for the record: ChEMBL document CHEMBL3994585
